# credit: the supplement of paper PMC10567573

B1: RBBP5 (parent)
chain: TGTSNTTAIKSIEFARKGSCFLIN

Variants of: B1
PROTOCOL_TEXT: protein stability index of a GFP-peptide fusion (GPS, HEK-293T) (PSI 1-6); higher = more stable;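 further: lentivirally expressed fusions sorted by FACS into six bins by GFP to DsRed ratio, PSI derived from sequencing read proportions per bin multiplied by bin number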
MEASUREMENT_CONTEXT: c terminus: a fixed tail appended
Decision: protein stability index compared against 2; not below it gives true, below it gives false.

{"VARIANT_DESCRIPTOR": "E13I", "CATEGORY_LABEL": "true"}
{"VARIANT_DESCRIPTOR": "C20R", "CATEGORY_LABEL": "true"}

// inclusive: protein stability index at least 2? input: `F14D`
true
